# Test system: KM-20L2
# MEASUREMENT_PROTOCOL: NCI tumour cell line growth inhibition, 48 h
Activity calls are given as the source filed them. No stated cut-off is given here; in the data, active = GI50 up to about 1.1 µM and inactive = higher.
RECORDED_ENDPOINT: GI50

Worked cases, GI50 given:
[
  {
    "COMPOUND": "CC1=C(CO)C(=O)OC(C(C)C2CCC3C4CC5OC56C(O)C(N5CC5)=CC(=O)C6(C)C4CCC23C)C1 (stereo not given)",
    "TARGET_DESC": "KM-20L2",
    "GI50": "3.05 µM (inactive)"
  },
  {
    "COMPOUND": "COC(=O)C(=O)C(C(=O)C(=O)Nc1cc(Cl)c(Cl)cc1Cl)c1nc2ccc([N+](=O)[O-])cc2nc1O (stereo not given)",
    "TARGET_DESC": "KM-20L2",
    "GI50": "> 100 µM (inactive)"
  },
  {
    "COMPOUND": "O=c1c2cc(Br)ccc2nc(-c2ccccc2)n1NCC1(O)OCC(O)C(O)C1O (stereo not given)",
    "TARGET_DESC": "KM-20L2",
    "GI50": "> 100 µM (inactive)"
  },
  {
    "COMPOUND": "CCOC(=O)CC(=O)ON(C)C(C)=O",
    "TARGET_DESC": "KM-20L2",
    "GI50": "> 100 µM (inactive)"
  }
]

Can you share its GI50? I mean this compound: `COC(=O)c1c2cccccc-2c(Cc2c3cccccc-3c(C(=O)OC)c2O)c1O`
> 100 µM (inactive)

* * *

# System: UO-31
# MEASUREMENT_PROTOCOL: NCI tumour cell line growth inhibition, 48 h
Calls of active or inactive are those of the source. Cut-off read from the data, not from the text of the source: active = GI50 up to about 1.1 µM and inactive = higher.
Your answer must be one of the following: active, inactive

[
  {
    "MOLECULE": "CS[C@]12C(=O)C[C@@]3(C)[C@@H](CC[C@]3(O)C(=O)CO)[C@@H]1CCC1=CC(=O)CC[C@@]12C",
    "CLASS_LABEL": "inactive"
  },
  {
    "MOLECULE": "CC(=O)c1c(=O)n(-c2ccc(C)cc2)c(O)c2c(N)n[nH]c12",
    "CLASS_LABEL": "inactive"
  },
  {
    "MOLECULE": "CC(=O)N1CC(=O)NC1=S",
    "CLASS_LABEL": "inactive"
  },
  {
    "MOLECULE": "CC1=CC23C(COC(=O)C24CO4)C(C(=O)O)=CC3C1C (centres undefined)",
    "CLASS_LABEL": "inactive"
  },
  {
    "MOLECULE": "CN(C)CCS/C(=N\\c1ccccc1)N1C=COC=C1",
    "CLASS_LABEL": "inactive"
  },
  {
    "MOLECULE": "CC1(C)C(CC(=O)O)CCCC1CC(=O)O (centres undefined)",
    "CLASS_LABEL": "inactive"
  },
  {
    "MOLECULE": "CCC(/C(=N\\Nc1c(Cl)cc(Cl)cc1Cl)c1ccccc1)n1ccnc1C (centres undefined)",
    "CLASS_LABEL": "inactive"
  },
  {
    "MOLECULE": "Cc1cc(C)n(CC(Cn2nc(C)cc2C)=C(/C(Cl)=C(/Cl)Nc2ccc([N+](=O)[O-])cc2)[N+](=O)[O-])n1",
    "CLASS_LABEL": "inactive"
  }
]

Kindly provide the recorded test outcome for the following molecule: `CN(C)/C=C/c1c2c(nc3ccccc13)C(=O)c1cccnc1C2=O`
active

// same read-out, input: `O=[N+]([O-])/C(C(Cl)=C(Cl)Cl)=C1/OCCS1`
inactive
